Test system: Human immunodeficiency virus 1
Test: Antiviral activity against HIV1 harboring Y181C mutant infected in human MT4 cells
Format: functional, organism-based
Details: Human immunodeficiency virus 1, MT4
pEC50: −log10 of the molar value.

{"itemSmiles": "C[C@H](Sc1nc(N)cc(Cl)n1)c1cc2ccoc2cn1", "pEC50": 6.75}

====

Target: Reverse transcriptase (Human immunodeficiency virus 1, UniProt Q9WKE8, K103N)
Test: Binding affinity to HIV-1 reverse transcriptase K103N mutant assessed as inhibition constant
The label is T for Ki below 800 nM and F for Ki equal to or exceeding 800 nM.

{"compound": "CC(c1cc(=O)[nH]c(N(C)C)n1)c1c(F)cccc1Cl (stereo not given)", "category": "F"}
{"compound": "CCN(C)c1nc(C(C)c2c(F)cccc2F)c(C)c(=O)[nH]1 (stereo not given)", "category": "T"}
{"compound": "Cc1c(C(C)c2c(F)cccc2Cl)nc(N(C)C)[nH]c1=O (stereo not given)", "category": "T"}
{"compound": "Cc1c(C(C)c2c(F)cccc2F)nc(N(C)C(C)C)[nH]c1=O (stereo not given)", "category": "T"}
{"compound": "CCCN(C)c1nc(C(C)c2c(F)cccc2F)c(C)c(=O)[nH]1 (stereo not given)", "category": "T"}

====

System: Human immunodeficiency virus 1
Assay: Antiviral activity against HIV-1 NL4-3 harboring infected Y188L mutant infected in human MT4 cells assessed as reduction in viral replication
Type: functional, organism-based
Conditions: Human immunodeficiency virus 1, NL4-3, MT4
List of EC50 values.

{"compound": "COc1ccc(CNc2nc(C(C)c3c(F)cccc3F)cc(=O)[nH]2)cc1 (stereo not given)", "readoutRelation": ">", "EC50 (nM)": 5000}
{"compound": "CSc1nc(N)c(C)c(C(=O)c2ccc(F)cc2)n1", "readoutRelation": "=", "EC50 (nM)": 210}
{"compound": "COc1ccc(C2CC2CNc2nc(C(C)c3c(F)cccc3F)cc(=O)[nH]2)cc1 (stereo not given)", "readoutRelation": ">", "EC50 (nM)": 5000}
{"compound": "COc1ccc(CN(C)c2nc(C(C)c3c(F)cccc3F)cc(=O)[nH]2)cc1 (stereo not given)", "readoutRelation": "=", "EC50 (nM)": 10}
{"compound": "COc1ccc(C2CC2CN(C)c2nc(C(C)c3c(F)cccc3F)cc(=O)[nH]2)cc1 (stereo not given)", "readoutRelation": "=", "EC50 (nM)": 2950}

====

Molecular target: Reverse transcriptase (Human immunodeficiency virus 1, UniProt Q9WKE8, K103N)
Experiment: Inhibition of HIV-1 Reverse transcriptase K103N mutant

{"compound": "COc1ccc(C2CC2CN(C)c2nc(C(C)c3c(F)cccc3F)cc(=O)[nH]2)cc1 (centres undefined)", "resultUnits": "µM", "IC50": 0.985}
{"compound": "COc1ccc(CN(C)c2nc(C(C)c3c(F)cccc3F)cc(=O)[nH]2)cc1 (centres undefined)", "resultUnits": "µM", "IC50": 1.05}
{"compound": "COc1ccc(C2CC2CNc2nc(C(C)c3c(F)cccc3F)cc(=O)[nH]2)cc1 (centres undefined)", "resultUnits": "µM", "IC50": 0.88}
{"compound": "COc1ccc(CNc2nc(C(C)c3c(F)cccc3F)cc(=O)[nH]2)cc1 (centres undefined)", "resultUnits": "µM", "IC50": 5}
